test: CHI Log D procedure; assay type: physicochemical; settings: pH 7.4
measurement.type: CHI Log D

Reference set (2 entries):
molecule	result
CC(=O)N1CCC[C@]12CC=CCCCC1(CCCC=CCCCOC(=O)N3CC[C@@](C(=O)N[C@@H](Cc4ccsc4)C(=O)N[C@@H](Cc4csc5ccccc45)C(=O)N[C@@H](CO)C(N)=O)(C3)NC(=O)[C@H](CO)NC(=O)[C@H](Cc3ccccc3)NC(=O)[C@H](C)NC(=O)[C@H](C)NC(=O)[C@H](Cc3cccc(C(=O)O)c3)NC(=O)[C@H](CC(=O)O)NC1=O)NC(=O)[C@H](CC(C)(C)C)NC(=O)[C@H](CC(=O)O)NC2=O (stereo partly drawn) [I-985]	1.87
CC(=O)N1CCC[C@]12CC=CCCCC1(CCCC=CCCCCCC[C@@](C)(C(=O)N[C@@H](Cc3ccccc3)C(=O)N[C@@H](Cc3csc4ccccc34)C(=O)N[C@@H](CO)C(N)=O)NC(=O)[C@H](CC(N)=O)NC(=O)[C@H](Cc3ccccc3)NC(=O)[C@H](C)NC(=O)[C@H](C)NC(=O)[C@H](CCC(=O)O)NC(=O)[C@H](CC(=O)O)NC1=O)NC(=O)[C@H](CC(C)C)NC(=O)[C@H](CC(=O)O)NC2=O (stereo partly drawn) [I-751]	2.513

# next molecule below
I would be grateful if you could share the reported CHI Log D for CC(=O)N1CCC[C@]12CC=CCCCC1(CCCC=CCCCOC(=O)N3CC[C@@](C(=O)N[C@@H](Cc4ccsc4)C(=O)N[C@@H](Cc4csc5ccccc45)C(=O)N[C@@H](CO)C(N)=O)(C3)NC(=O)[C@H](CC(C)C)NC(=O)[C@H](Cc3ccccc3)NC(=O)[C@H](C)NC(=O)[C@H](C)NC(=O)[C@H](Cc3cccc(C(=O)O)c3)NC(=O)[C@H](CC(=O)O)NC1=O)NC(=O)[C@H](CC(C)(C)C)NC(=O)[C@H](CC(=O)O)NC2=O (stereo partly drawn) [I-986] . 1.855
